Tested on: 855422-203-R-J1-PDC complex spheroid viability;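 further: drug exposure lasted 7 days starting on day 3 after seeding; luminescence viability as percent of DMSO vehicle wells = 100%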
Assay: Anticancer human tumor 855422-203-R-J1-PDC patient-derived bladder carcinoma cell line growth inhibition
Conditions: second compound 3.16 µM; first compound 0.3 µM; stronger effect = lower value
viability, T/C for assorted compounds
Hi! Could you send only the number? It should be in %, unit omitted.

* CCc1c2c(nc3ccc(O)cc13)-c1cc3c(c(=O)n1C2)COC(=O)[C@]3(O)CC + NC1CCC(NC2CC2c2ccccc2)CC1 | 2.98

Task: Answer with reported viability, T/C of Nc1ccn(C2OC(CO)C(O)C2(F)F)c(=O)n1 (configuration not stated) + NC1CC1c1ccc(-c2cccc(O)c2)cc1
Result: 18.8

Task: Please report viability, T/C for the following compound: COc1cc(C2c3cc4c(cc3C(OC3OC5COC(C)OC5C(O)C3O)C3COC(=O)C23)OCO4)cc(OC)c1O (configuration not stated) + NC1CCC(NC2CC2c2ccccc2)CC1
Result: 30.5

Task: # return recorded viability, T/C for input CCc1c2c(nc3ccc(O)cc13)-c1cc3c(c(=O)n1C2)COC(=O)[C@]3(O)CC + NC1CC1c1ccc(-c2cccc(O)c2)cc1
Result: 2.44
